Can you tell me pIC50 for the items I'm about to list?
# Target Or Test System: [35S]-TBPS binding, rat brain cortical membranes
# Experiment Description: Steroid inhibition of [35S]-TBPS binding
# Condition Notes: 3 nM [35S]-TBPS, in the presence of 5 mM GABA
# Experimental: [^35S]-t-Butylbicyclophosphorothionate (TBPS) binding assays using rat brain cortical membranes in the presence of 5 mM GABA has been described (Gee et al, J. Pharmacol. Exp. Ther. 1987, 241, 346-353; Hawkinson et al, Mol. Pharmacol. 1994, 46, 977-985; Lewin, A. H et al., Mol. Pharmacol. 1989, 35, 189-194). Briefly, cortices are rapidly removed following decapitation of carbon dioxide-anesthetized Sprague-Dawley rats (200-250 g). […]
pIC50: −log10 of the molar value.

Would you kindly share the measured pIC50 for CC[C@@]1(O)CC[C@@]2(C)[C@@H](CC[C@@H]3[C@@H]2CC[C@]2(C)[C@@H]([C@@H](C)Cn4nnc(C)n4)CC[C@@H]32)C1 [Example 359] ?
≤ 5.00

Repeat for the following compound: CCOC[C@@]1(O)CC[C@H]2[C@H](CC[C@@H]3[C@@H]2CC[C@]2(C)[C@@H]([C@@H](CC)Cn4nccc4C#N)CC[C@@H]32)C1 [Example 500]
5.00 to 6.00

Repeat for the following compound: C[C@@H](Nc1ccccc1)[C@H]1CC[C@H]2[C@@H]3CC[C@@H]4C[C@](C)(O)CC[C@@H]4[C@H]3CC[C@]12C [Example 25]
> 7.00
